System: HOP-92
method: NCI tumour cell line growth inhibition, 48 h
Active and inactive are the calls of the source. Rule as the data show it: active = GI50 up to about 1.1 µM and inactive = higher.
# reported GI50; entries follow

[
  {
    "compound": "CC12C(=O)N(CCN)C(=O)C1C1c3ccccc3C2c2ccccc21 (stereo not given)",
    "tested.target": "HOP-92",
    "GI50": "28.9 µM (inactive)"
  },
  {
    "compound": "O=C1CC2(CCN(CC3COc4ccccc4O3)CC2)C(=O)N1N1CCCCCC1 (stereo not given)",
    "tested.target": "HOP-92",
    "GI50": "87.3 µM (inactive)"
  },
  {
    "compound": "CSC1=Nc2ccccc2-c2nc3ccccc3cc2C1",
    "tested.target": "HOP-92",
    "GI50": "> 100 µM (inactive)"
  },
  {
    "compound": "Cc1ccccc1C(=O)N/N=C/c1ccc(Sc2nccn2C)c([N+](=O)[O-])c1",
    "tested.target": "HOP-92",
    "GI50": "14.3 µM (inactive)"
  },
  {
    "compound": "CC(=O)c1ccc(NCN2C(=O)c3ccccc3C2=O)cc1",
    "tested.target": "HOP-92",
    "GI50": "> 100 µM (inactive)"
  },
  {
    "compound": "COc1cc(/C=C2/SC(c3ccccc3)N(c3ccc(Cl)cc3)C2=O)cc(OC)c1OC (stereo not given)",
    "tested.target": "HOP-92",
    "GI50": "> 100 µM (inactive)"
  },
  {
    "compound": "COc1ccc2nc3c([N+](=O)[O-])ccc4c3c(c2c1)N=CN4CCCN(C)C",
    "tested.target": "HOP-92",
    "GI50": "1.99 µM (inactive)"
  },
  {
    "compound": "CCN(CC)C(=O)CCN1CC1",
    "tested.target": "HOP-92",
    "GI50": "> 10 µM (inactive)"
  },
  {
    "compound": "CCCCCCCCCCCCCCCCCC(=O)OCC(COC1OC(CS(=O)(=O)O)C(O)C(O)C1O)OC(=O)CCCCCCCCCCCCCCCCC (stereo not given)",
    "tested.target": "HOP-92",
    "GI50": "45.2 µM (inactive)"
  },
  {
    "compound": "O=C1OC2C(O)COC2(O)C1(O)Cc1c[nH]c2ccccc12.O=C1OC2C(O)COC2(OCc2c[nH]c3ccccc23)C1O (stereo not given)",
    "tested.target": "HOP-92",
    "GI50": "> 100 µM (inactive)"
  },
  {
    "compound": "O=C(OCc1ccccc1)c1ccccc1-c1c2ccc(=O)cc-2oc2cc(OCc3ccccc3)ccc12",
    "tested.target": "HOP-92",
    "GI50": "3.56 µM (inactive)"
  },
  {
    "compound": "COc1cc2c(cc1OCCCC(=O)Nc1cc(C(=O)Nc3cc(C(=O)Nc4cc(C(=O)NCCCN(C)C)n(C)n4)n(C)c3)n(C)c1)N=CC1CCCN1C2=O (stereo not given)",
    "tested.target": "HOP-92",
    "GI50": "21.3 µM (inactive)"
  },
  {
    "compound": "CCCNC(=O)C1C(=O)C(=O)N(CCC)C1=O (stereo not given)",
    "tested.target": "HOP-92",
    "GI50": "> 100 µM (inactive)"
  },
  {
    "compound": "CCOC(=O)c1nc2cc(C(F)(F)F)ccc2nc1Nc1ccc(F)cc1",
    "tested.target": "HOP-92",
    "GI50": "10.8 µM (inactive)"
  },
  {
    "compound": "C=C1C(=O)O[C@@H]2OC3(C)CCC4C(C)CCC1C42OO3 (stereo not given in full)",
    "tested.target": "HOP-92",
    "GI50": "1.85 µM (inactive)"
  },
  {
    "compound": "CCOC(=O)C1C(=O)CC(O)(c2ccccc2)C(C(=O)OCC)C1c1ccc(N(C)C)cc1 (stereo not given)",
    "tested.target": "HOP-92",
    "GI50": "19.7 µM (inactive)"
  },
  {
    "compound": "Cc1cc(C)c(O)c(Cc2cccc(Cc3cc(C)cc(C)c3O)c2O)c1",
    "tested.target": "HOP-92",
    "GI50": "> 100 µM (inactive)"
  },
  {
    "compound": "COC(=O)CCC(NC(=S)N/N=C(\\C)c1cccs1)C(=O)OC (stereo not given)",
    "tested.target": "HOP-92",
    "GI50": "> 100 µM (inactive)"
  },
  {
    "compound": "COc1ccc(Nc2nc(C#N)c(N)s2)cc1",
    "tested.target": "HOP-92",
    "GI50": "> 100 µM (inactive)"
  },
  {
    "compound": "COc1cc([C@@H]2c3cc4c(cc3[C@@H](NCc3cccc(C#N)c3)C3COC(=O)[C@@H]32)OCO4)cc(OC)c1O (stereo not given in full)",
    "tested.target": "HOP-92",
    "GI50": "1.32 µM (inactive)"
  }
]

---

Test system: SK-MEL-2
method: NCI tumour cell line growth inhibition, 48 h
Calls of active or inactive are those of the source. No stated cut-off is given here; in the data, active = GI50 up to about 1.1 µM and inactive = higher. Where a SMILES comes first, the peptide text is derived from it. [ ]: non-standard residue; d: D form. The star is where a group is joined. Chg = N[CH](C(=O)O)C1CCCCC1; Cbz = O=C(OCc1ccccc1)*; OBn = c1ccc(CO*)cc1
Classes used: active, inactive

[
  {
    "molecule": "Cc1c(-c2ccccc2)[nH]c2cc(Cl)ccc2c1=O",
    "tested.target": "SK-MEL-2",
    "assigned.label": "inactive"
  },
  {
    "molecule": "C/C(=N\\NC(=S)N1CCN(C2CCCCCC2)CC1)c1ccccn1",
    "tested.target": "SK-MEL-2",
    "assigned.label": "active"
  },
  {
    "molecule": "CC(=O)O[C@H]1CC[C@H]2[C@@H]3CCC4=C/C(=N/OCCN(C)C)CC[C@]4(C)[C@H]3CC[C@]12C",
    "tested.target": "SK-MEL-2",
    "assigned.label": "inactive"
  },
  {
    "molecule": "COc1ccc(Nc2nc(C#N)c(N)s2)cc1",
    "tested.target": "SK-MEL-2",
    "assigned.label": "inactive"
  },
  {
    "molecule": "CC(C)/C(Cl)=N\\OC(=O)Nc1cccc(Cl)c1",
    "tested.target": "SK-MEL-2",
    "assigned.label": "inactive"
  },
  {
    "molecule": "O=c1c2ccccc2nc(-c2ccccc2)n1NC(=S)Nc1ccccc1",
    "tested.target": "SK-MEL-2",
    "assigned.label": "inactive"
  },
  {
    "molecule": "COC(=O)C(NC(=O)C(CC(=O)OCc1ccccc1)NC(=O)OCc1ccccc1)C1CCCCC1 (centres undefined) (Cbz-Asp(OBn)-[Chg]-OMe; configuration not given here)",
    "tested.target": "SK-MEL-2",
    "assigned.label": "inactive"
  },
  {
    "molecule": "CCOc1ccccc1-c1nc2c(s1)C(=O)c1ccccc1C2=O",
    "tested.target": "SK-MEL-2",
    "assigned.label": "inactive"
  },
  {
    "molecule": "CC(C)N(C(=O)C12C3C4C1C1C2C3C41C(=O)N(C(C)C)C(C)C)C(C)C (centres undefined)",
    "tested.target": "SK-MEL-2",
    "assigned.label": "inactive"
  }
]

---

Tested on: M14
method: NCI tumour cell line growth inhibition, 48 h
The source made the active and inactive calls. No stated cut-off is given here; in the data, active = GI50 up to about 1.1 µM and inactive = higher.
Possible outcomes: 1 (yes) for active, 0 (no) for inactive

[
  {
    "molecule": "N#C/C(=C\\c1cc(F)cc(F)c1)c1ccccn1",
    "assigned.label": "0 (no)"
  },
  {
    "molecule": "O=C1Cc2ccccc2N1/N=C\\c1ccc([N+](=O)[O-])cc1",
    "assigned.label": "0 (no)"
  },
  {
    "molecule": "CC(=O)OCC1OC(n2cc(F)c(=O)[nH]c2=O)C(OC(C)=O)C1OC(C)=O (stereo unspecified)",
    "assigned.label": "0 (no)"
  },
  {
    "molecule": "O=P(O)(NCCCl)NCCCl [PALIFOSFAMIDE]",
    "assigned.label": "0 (no)"
  },
  {
    "molecule": "[N-]=[N+]=C1C(=O)C2CC3CC(C2)CC1C3",
    "assigned.label": "0 (no)"
  },
  {
    "molecule": "O=C1c2cccnc2-c2nccc3c2c1nc1ccccc13",
    "assigned.label": "1 (yes)"
  },
  {
    "molecule": "OC1=CN=COc2ccccc21",
    "assigned.label": "0 (no)"
  },
  {
    "molecule": "CC1CC[C@@]2(OC1)OC1C[C@H]3[C@@H]4CC[C@H]5CC(OC6OC(CO)C(OC7OC(CO)C(O)C(O)C7O)C(O)C6O)CCC5(C)[C@H]4CCC3(C)C1[C@@H]2C (stereo partly specified)",
    "assigned.label": "0 (no)"
  },
  {
    "molecule": "CN1C(C)(C)CC(=O)C(Br)C1(C)C (stereo unspecified)",
    "assigned.label": "0 (no)"
  },
  {
    "molecule": "O=c1[nH]c(=S)[nH]n1C(=S)n1[nH]c(=S)[nH]c1=O",
    "assigned.label": "0 (no)"
  },
  {
    "molecule": "CCC1=C(CC)C1(C#N)[N+](=O)[O-]",
    "assigned.label": "0 (no)"
  }
]
